systemName: CDK6/CyclinD3 (Homo sapiens (Human), UniProt Q00534)
Sequence (Q00534 whole entry): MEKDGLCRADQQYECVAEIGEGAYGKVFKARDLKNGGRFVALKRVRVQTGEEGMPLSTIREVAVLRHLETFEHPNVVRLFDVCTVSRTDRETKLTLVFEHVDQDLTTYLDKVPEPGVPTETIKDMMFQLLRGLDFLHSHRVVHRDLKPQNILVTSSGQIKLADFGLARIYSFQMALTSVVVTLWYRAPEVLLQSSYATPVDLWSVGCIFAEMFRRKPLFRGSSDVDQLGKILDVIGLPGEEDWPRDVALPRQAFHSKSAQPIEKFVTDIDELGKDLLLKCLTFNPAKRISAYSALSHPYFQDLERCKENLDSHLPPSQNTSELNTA
Sequence (P30281 whole entry partner): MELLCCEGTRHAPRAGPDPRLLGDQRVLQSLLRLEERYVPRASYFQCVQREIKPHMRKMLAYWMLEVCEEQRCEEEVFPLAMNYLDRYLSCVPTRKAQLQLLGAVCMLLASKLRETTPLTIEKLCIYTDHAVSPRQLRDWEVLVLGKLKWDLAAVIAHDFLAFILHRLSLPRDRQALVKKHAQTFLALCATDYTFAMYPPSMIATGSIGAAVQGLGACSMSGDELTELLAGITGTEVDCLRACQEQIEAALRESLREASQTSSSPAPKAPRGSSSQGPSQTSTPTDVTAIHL
testProtocol: CDK6 kinase assay (TR-FRET)
conditionsUsed: CDK6/CyclinD3 0.50 nM, ATP 140 μM
Below: a set of entries, each annotated with reported pIC50.
// pIC50 here means minus log10 of the molar concentration (mol/L)

Worked examples follow.
>>> print(df.to_string())
                                   compound                                systemname  assayvalue
0  CC1(NC(=O)OC2COC(c3cc(NC(=O)Cc4cc(F)cc(F)c4)n[nH]3)C2)CCOC1 (stereo not shown)  CDK6/CyclinD3 (Homo sapiens (Human), UniProt Q00534)        6.00
1  CC[C@H](C)NC(=O)O[C@@H]1CC[C@H](c2cc(NC(=O)[C@H]3C[C@@H]3COC)n[nH]2)C1  CDK6/CyclinD3 (Homo sapiens (Human), UniProt Q00534)        6.24
2  CC(C)NC(=O)O[C@@H]1CC[C@H](c2cc(NC(=O)[C@@H]3CCN(S(C)(=O)=O)C3)n[nH]2)C1  CDK6/CyclinD3 (Homo sapiens (Human), UniProt Q00534)        6.05

Now for a further compound.
Please look up its pIC50: C#C[C@H]1C[C@@H]1C(=O)Nc1cc([C@H]2CC[C@@H](OC(=O)NC(C)C)C2)[nH]n1
6.60

----------
systemName: CDK2/CyclinE1 (Homo sapiens (Human))
testProtocol: CDK2 kinase assay (TR-FRET)
conditionsUsed: CDK2/CyclinE1 0.5 nM, ATP 50 μM
Below: a set of entries, each annotated with reported pIC50.
// pIC50 here means minus log10 of the molar concentration (mol/L)

>>> print(df.to_string())
                                   compound  assayvalue
0  CC(C)NC(=O)O[C@H]1CO[C@@H](c2cc(NC(=O)Cc3ccc(OCCN4CCCC4)cc3)n[nH]2)C1        8.49

Please look up its pIC50: C#C[C@H]1C[C@@H]1C(=O)Nc1cc([C@@H]2CC[C@H](OC(=O)NC3(C)CCC3)C2)[nH]n1
9.30

Please look up its pIC50: Cc1c(C2CC2C(=O)Nc2cc([C@H]3CC[C@@H](OC(=O)NC(C)C)C3)[nH]n2)cnn1C (single isomer, unassigned) [Compound 163]
9.15

Please look up its pIC50: CC(C)NC(=O)OC1COC(c2cc(NC(=O)c3ccnn3C)n[nH]2)C1 (stereo not shown) [Compound 27]
8.92

Please look up its pIC50: C#C[C@H]1C[C@@H]1C(=O)Nc1cc([C@@H]2C[C@H](OC(=O)NC(C)C)CO2)[nH]n1
8.33

Please look up its pIC50: CC(C)(C)NC(=O)O[C@@H]1CC[C@H](c2cc(NC(=O)C3CC3C#N)n[nH]2)C1 (single isomer, unassigned) [Compound 187]
8.85

Please look up its pIC50: Cc1cc(CC(=O)Nc2cc([C@H]3CC[C@@H](OC(=O)NC4COC5(CCC5)C4)C3)[nH]n2)on1 (single isomer, unassigned) [Compound 39]
8.40

----------
Below: a set of entries, each annotated with reported pIC50.
systemName: CDK2/CyclinE1 (Homo sapiens (Human), UniProt P24941)
testProtocol: CDK2 kinase assay (TR-FRET)
conditionsUsed: CDK2/CyclinE1 0.5 nM, ATP 50 μM
// pIC50 here means minus log10 of the molar concentration (mol/L)

>>> df
                                   compound  readout  assayvalue
0  CC(C)NC(=O)O[C@@H]1CC[C@H](c2cc(NC(=O)C3CCN(S(C)(=O)=O)CC3)n[nH]2)C1 [Compound 8]    pIC50        7.95
1  CC(C)NC(=O)O[C@@H]1CC[C@H](c2cc(NC(=O)C3CN(S(C)(=O)=O)CC3C)n[nH]2)C1 (stereo partly shown) [Compound 75]    pIC50        7.94
2  CC(C)NC(=O)O[C@@H]1CO[C@H](c2cc(NC(=O)c3cc(C(F)F)nn3C)n[nH]2)C1 [Compound 112]    pIC50        7.87

Now for a further compound.
Please look up its pIC50: CC(C)NC(=O)OC1COC(c2cc(NC(=O)c3ccccc3)n[nH]2)C1 (stereo not shown) [Compound 66]
7.84

----------
systemName: CDK2/CyclinE1 (Homo sapiens (Human), UniProt P24941)
testProtocol: CDK2 kinase assay (TR-FRET)
conditionsUsed: CDK2/CyclinE1 0.5 nM, ATP 50 μM
The label yes is reserved for IC50 strictly under 1 nM; no covers values equal to or above it.

Answered cases to consult:
>>> print(df.to_string())
                                   compound  assignedcategory
0  CC(C)NC(=O)O[C@@H]1CO[C@H](c2cc(NC(=O)c3cc(C4CC4)nn3C)n[nH]2)C1 [Compound 77]                no
1  CC(C)NC(=O)O[C@@H]1CC[C@H](c2cc(NC(=O)[C@@H]3CCN(S(=O)(=O)C(C)C)C3)n[nH]2)C1 [Compound 58]                no
2  C#C[C@H]1C[C@@H]1C(=O)Nc1cc([C@@H]2CC[C@H](OC(=O)NC3(C)CC3)C2)[nH]n1 [Compound 223]               yes
3  Cc1c(C2CC2C(=O)Nc2cc([C@@H]3CC[C@H](OC(=O)NC(C)C)C3)[nH]n2)cnn1C (single isomer, unassigned) [Compound 207]                no
4  CC(C)NC(=O)O[C@@H]1CC[C@H](c2cc(NC(=O)[C@@H]3CCN(S(=O)(=O)C4CC4)C3)n[nH]2)C1 [Compound 70]                no

Hello, is IC50 of the following compound strictly smaller than 1 nM? CC(C)NC(=O)O[C@@H]1CC[C@H](c2cc(NC(=O)C3CC4CCC3O4)n[nH]2)C1 (single isomer, unassigned) [Compound 152]
no

Hello, is IC50 of the following compound strictly smaller than 1 nM? C#C[C@H]1C[C@@H]1C(=O)Nc1cc([C@H]2C[C@@H](OC(=O)NC(C)(C)C)CO2)[nH]n1 [Compound 166]
yes

Hello, is IC50 of the following compound strictly smaller than 1 nM? Cn1nccc1C(=O)Nc1cc([C@H]2CC[C@@H](OC(=O)NC3COC4(CCC4)C3)C2)[nH]n1 (single isomer, unassigned) [Compound 44]
no

----------
systemName: CDK2/CyclinE1 (Homo sapiens (Human))
testProtocol: CDK2 kinase assay (TR-FRET)
conditionsUsed: CDK2/CyclinE1 0.5 nM, ATP 50 μM
Below: a set of entries, each annotated with reported pIC50.
// pIC50 here means minus log10 of the molar concentration (mol/L)

Worked examples follow.
>>> df
                                   compound  readout  assayvalue
0  Cc1c(C2CC2C(=O)Nc2cc([C@H]3CC[C@@H](OC(=O)NC(C)C)C3)[nH]n2)cnn1C (stereo partly shown) [Compound 162]    pIC50        6.96
1  CC(C)NC(=O)O[C@@H]1CC[C@H](c2cc(NC(=O)[C@@H]3C[C@@H](C(C)C)N(S(C)(=O)=O)C3)n[nH]2)C1    pIC50        7.90
2  Cc1cc(C(=O)Nc2cc([C@@H]3C[C@H](OC(=O)NC(C)C)CO3)[nH]n2)n(C)n1    pIC50        7.72

Now for a further compound.
Please look up its pIC50: CCC(C)(C)NC(=O)O[C@H]1CO[C@@H](c2cc(NC(=O)c3ccnn3C)n[nH]2)C1
9.22

----------
systemName: CDK1/CyclinB1 (Homo sapiens (Human), UniProt P06493)
Sequence (P06493 whole entry): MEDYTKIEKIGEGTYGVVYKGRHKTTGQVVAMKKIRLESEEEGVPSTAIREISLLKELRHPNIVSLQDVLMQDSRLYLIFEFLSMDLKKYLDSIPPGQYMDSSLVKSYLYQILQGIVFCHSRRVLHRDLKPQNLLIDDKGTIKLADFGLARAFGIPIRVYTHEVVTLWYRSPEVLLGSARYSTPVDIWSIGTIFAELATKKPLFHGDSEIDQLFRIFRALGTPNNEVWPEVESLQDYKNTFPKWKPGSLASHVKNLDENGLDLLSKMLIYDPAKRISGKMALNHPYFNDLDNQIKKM
Sequence (P14635 whole entry partner): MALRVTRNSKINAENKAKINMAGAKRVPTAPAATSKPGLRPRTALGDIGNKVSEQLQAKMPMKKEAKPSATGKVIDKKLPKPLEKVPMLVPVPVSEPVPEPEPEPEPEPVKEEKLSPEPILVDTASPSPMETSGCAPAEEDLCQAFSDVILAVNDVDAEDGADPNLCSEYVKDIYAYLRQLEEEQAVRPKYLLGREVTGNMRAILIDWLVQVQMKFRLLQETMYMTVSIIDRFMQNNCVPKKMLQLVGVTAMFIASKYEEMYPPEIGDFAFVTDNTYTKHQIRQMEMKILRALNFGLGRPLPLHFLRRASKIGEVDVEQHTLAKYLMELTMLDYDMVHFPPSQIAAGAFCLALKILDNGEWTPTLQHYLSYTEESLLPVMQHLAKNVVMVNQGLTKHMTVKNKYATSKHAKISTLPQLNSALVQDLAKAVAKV
testProtocol: CDK1 kinase assay (TR-FRET)
conditionsUsed: CDK1/CyclinB 7.5 nM, ATP 17 μM
readout: IC50 (µM)
Unit µM implied. Number only.

Worked examples follow.
                                   compound  readout  assayvalue
0  C#C[C@H]1C[C@@H]1C(=O)Nc1cc([C@H]2CC[C@@H](OC(=O)NC3(C)COC3)C2)[nH]n1 [Compound 180]     IC50      0.0694
1  CCC(C)(C)NC(=O)O[C@@H]1CO[C@H](c2cc(NC(=O)c3ccnn3C)n[nH]2)C1 [Compound 191]     IC50       0.101
2  CC(C)NC(=O)OC1COC(c2cc(NC(=O)Cc3cc(F)cc(F)c3)n[nH]2)C1 (centres unmarked) [Compound 24]     IC50       0.102
3  CCS(=O)(=O)N1CC[C@@H](C(=O)Nc2cc([C@H]3CC[C@@H](OC(=O)NC(C)C)C3)[nH]n2)C1 [Compound 49]     IC50       0.132

Fill in the recorded IC50 for this compound, with CDK1/CyclinB1 (Homo sapiens (Human), UniProt P06493) as test system: Cn1nccc1C(=O)Nc1cc([C@@H]2C[C@H](OC(=O)NC(C)(C)C)CO2)[nH]n1 [Compound 102]
0.133
